- Tested on: U937 cells
- Protocol description: proliferation assay of human AML cell line U937 (Cell Titer Glo, 3 days)
- Assay type: cell-based
- Assay context: 3 days growth, Cell Titer Glo luminescence, read-out: IC50 (μM) from proliferation assays of human AML cell lines

{"columns": ["Compound", "IC50, µM"],
 "data": [
  ["COc1cc2cc3c(Nc4cc(OC)c(OC)c(OC)c4)c(C#N)cnc3cc2cc1OCCN1CCOCC1", 2.1]
]}
